From: patent US20220267421A1

molecular target: T1, cell surface human mesothelin (MSLN) (human, UniProt Q13421 296-598); assay: flow cytometry, NCI-H226 cells + 20 nM soluble MSLN
T1 construct: whole, on cells; also called cell surface MSLN
T1 sequence (Q13421 other isoform, or with tags, fused parts or gaps limits assumed): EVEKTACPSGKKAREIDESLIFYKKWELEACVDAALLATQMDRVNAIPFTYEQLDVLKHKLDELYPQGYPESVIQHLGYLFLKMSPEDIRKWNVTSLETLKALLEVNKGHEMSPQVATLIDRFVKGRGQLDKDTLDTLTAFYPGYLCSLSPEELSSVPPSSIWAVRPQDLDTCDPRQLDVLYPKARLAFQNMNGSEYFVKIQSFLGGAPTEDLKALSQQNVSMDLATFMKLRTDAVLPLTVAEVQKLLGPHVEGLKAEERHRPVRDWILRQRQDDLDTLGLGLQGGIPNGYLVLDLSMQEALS
Known EC50 of a selection of binders

BINDER	MEASURE_UNIT	EC50
FS22-053-008-AA/FS28-256-027 mAb^2 (bispecific antibody, human IgG1, kappa, L234A L235A, V domains shown) VH: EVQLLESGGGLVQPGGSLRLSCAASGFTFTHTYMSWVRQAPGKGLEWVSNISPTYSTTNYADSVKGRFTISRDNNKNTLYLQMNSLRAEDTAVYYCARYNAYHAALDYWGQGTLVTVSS VL: EIVLTQSPGTLSLSPGERATLSCRASQSVSSSYLAWYQQKPGQAPRLLIYGASSRATGIPDRFSGSGSGTDFTLTISRLEPEDFAVYYCQQTVPYPYTFGQGTKVEIKR	nM	21.8
FS22-053-008-AA/FS28-024-060 mAb^2 (bispecific antibody, human IgG1, kappa, L234A L235A, V domains shown) VH: EVQLLESGGGLVQPGGSLRLSCAASGFTLSYSSMSWVRQAPGKGLEWVSFITPSTGYTHYADSVKGRFTISRDNSKNTLYLQMNSLRAEDTAVYYCARRALWFDYWGQGTLVTVSS VL: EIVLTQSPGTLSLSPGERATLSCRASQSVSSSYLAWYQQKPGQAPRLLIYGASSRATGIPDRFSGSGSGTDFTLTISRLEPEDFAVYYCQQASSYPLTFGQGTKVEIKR	nM	25.7
FS22-053-008-AA/FS28-256-024 mAb^2 (bispecific antibody, human IgG1, kappa, L234A L235A, V domains shown) VH: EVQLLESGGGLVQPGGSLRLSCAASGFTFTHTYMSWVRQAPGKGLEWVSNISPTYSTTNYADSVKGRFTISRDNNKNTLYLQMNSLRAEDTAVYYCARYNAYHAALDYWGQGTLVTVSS VL: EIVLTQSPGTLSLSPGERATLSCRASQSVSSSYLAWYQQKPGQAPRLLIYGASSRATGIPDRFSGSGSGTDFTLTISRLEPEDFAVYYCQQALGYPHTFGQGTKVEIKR	nM	3.91
